- Test system: HT29 colon
- experiment_summary: NCI tumour cell line growth inhibition, 48 h
result_type: log10(TGI) (log10 of the value in µM)
Quick note: numbers are log10 of TGI, with µM as the unit.

Exercise: log10(TGI) for COc1ccccc1CCN=C1NC(=O)/C(=C/c2ccc3ncccc3c2)S1 ?
Solution: 1.20

Exercise: log10(TGI) for COc1cc2cc(Oc3ccc(NC(=O)Nc4cccc(C(F)(F)F)c4)cc3)c(C)nc2cc1OC ?
Solution: 0.80

Exercise: log10(TGI) for O=C(CCc1ccccc1)ON1C(=S)NC(c2ccccc2)(c2ccccc2)C1=S ?
Solution: 1.97

Exercise: log10(TGI) for CCN1CCN(c2ccc(Nc3ccnc4ccc5c(nnn5C)c34)cc2)CC1 ?
Solution: 1.86

Exercise: log10(TGI) for CSc1nc(Cl)c(Br)c(Sc2nc(N)nc3nc[nH]c23)n1 ?
Solution: 1.57
